In this section, each of the variants is paired with its reported abundance fitness.
B1: 3'-5' exoribonuclease 1, residues 65 to 114; numbered along this chain, Q8IV48 (parent)
chain: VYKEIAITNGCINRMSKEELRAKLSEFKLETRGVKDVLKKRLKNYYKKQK

Variants of: B1
Assay: abundance fitness (aPCA) (normalised: wild type 0, dead -1); higher = more abundant; growth selection in yeast, the domain comes from the species named
Conditions: Homo sapiens

{"entry sequence": "VYKEGAITNGCINRMSKEELRAKLSEFKLETRGVKDVLKKRLKNYYKKQK [I5G]", "abundance fitness": 0.025}
{"entry sequence": "VYKEIAITNGCINRMSKEELRFKLSEFKLETRGVKDVLKKRLKNYYKKQK [A22F]", "abundance fitness": -0.12}
{"entry sequence": "VYKEIAITNGCINRMSKEELRAKLSEFKLETRGVWDVLKKRLKNYYKKQK [K35W]", "abundance fitness": -0.815}
{"entry sequence": "VYKEIAITNGSINRMSKEELRAKLSEFKLETRGVKDVLKKRLKNYYKKQK [C11S]", "abundance fitness": 0.012}
{"entry sequence": "VYKETAITNGCINRMSKEELRAKLSEFKLETRGVKDVLKKRLKNYYKKQK [I5T]", "abundance fitness": 0.066}
{"entry sequence": "VYKEIIITNGCINRMSKEELRAKLSEFKLETRGVKDVLKKRLKNYYKKQK [A6I]", "abundance fitness": 0.019}
{"entry sequence": "VYKNIAITNGCINRMSKEELRAKLSEFKLETRGVKDVLKKRLKNYYKKQK [E4N]", "abundance fitness": -0.057}
{"entry sequence": "VYKEIAITNGCINRMSKEELRAKLSEFKLETWGVKDVLKKRLKNYYKKQK [R32W]", "abundance fitness": -0.478}
{"entry sequence": "VYKEIAITEGCINRMSKEELRAKLSEFKLETRGVKDVLKKRLKNYYKKQK [N9E]", "abundance fitness": -0.241}
{"entry sequence": "VYKEIAITNGCINRMSKEELRAKLREFKLETRGVKDVLKKRLKNYYKKQK [S25R]", "abundance fitness": 0.022}
{"entry sequence": "VYKEIAITNGCINRMSKEELRAKLSEFKLETRGVQDVLKKRLKNYYKKQK [K35Q]", "abundance fitness": -0.767}
{"entry sequence": "VYKPIAITNGCINRMSKEELRAKLSEFKLETRGVKDVLKKRLKNYYKKQK [E4P]", "abundance fitness": -0.107}
{"entry sequence": "VYKEIAITNGCINRMSKEELRAKLSEFKLETRGVKDVMKKRLKNYYKKQK [L38M]", "abundance fitness": -0.338}
{"entry sequence": "VYKEIAITNGCINRMSKEELRAKLSEFKLETRHVKDVLKKRLKNYYKKQK [G33H]", "abundance fitness": -0.875}
{"entry sequence": "VYKEIAITNGCINRMSKEELRAKLSETKLETRGVKDVLKKRLKNYYKKQK [F27T]", "abundance fitness": -0.483}

The measured values listed here are drawn from the Human Domainome abundance scans (Beltran et al. 2025).
